- Study system: T1, human W3785-hProl.ECD.His (Human-TNFR2-His) protein (human, UniProt P20333 23-257)
- T1 construct: extracellular domain; not shown: His tag
- T1 sequence (looked up): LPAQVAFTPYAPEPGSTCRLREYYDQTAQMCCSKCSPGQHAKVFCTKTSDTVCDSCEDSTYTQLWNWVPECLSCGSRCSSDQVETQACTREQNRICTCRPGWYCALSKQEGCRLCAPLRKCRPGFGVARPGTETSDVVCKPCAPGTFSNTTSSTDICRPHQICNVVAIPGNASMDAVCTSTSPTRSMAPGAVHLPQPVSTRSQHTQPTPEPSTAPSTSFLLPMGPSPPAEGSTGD
- Method description: BLI (Octet Red96e), antibody on AHC sensor, Human-TNFR2-His in solution, multiple concentrations
Value kind: kon (M⁻¹ s⁻¹)
Respond numerically; units are M⁻¹ s⁻¹ and should not be typed.

Consider the following illustrative entries.
Antibody 11-xIgG1K (antibody, V domains shown, Rat-human chimeric antibody, human IgG1 kappa) VH: EVQLQQSGPELRRPGSSVKLSCKASGYSITDYLLHWVKHSPEHGLEWIGWIDPEDGKTKYGQKFQSKATLTADTSSNAAYMQLSSLTSEDSATYFCAANSGTGTMDAWGQGASVTVSS VL: DIVMTQSPTSMSISVGDRVTLNCKASQNVGSNVDWYQQKTGQSPKVLLYKASIRYTGVPDRFTGSGSGTEFTFTITNMQAEDLAVYFCMQSKSYPITFGSGTKLEIKR
542000
Antibody 04-xIgG1K (antibody, V domains shown, Rat-human chimeric antibody, human IgG1 kappa) VH: EVHLQQSGPEVGRPGSSVKISCKASGYTFTDYIIHWVKQSPGQGLEWMGWIDPDYGNTDYADKFKKKATLTADASSNTAFIHLSRLTSEDTATYFCARDDGSPLVMDAWGQGTSVTVSS VL: NIQLTQSPSLLSASVGDRVTLSCNGSQNIDNYLAWFQQKLGEAPKLLIYSTYSLQTGIPSRFSGSRSGTDYTLTISSLQPEDVATYFCFQYNNGYMFGAGTKLELKR
1.1e+06

Now consider a different binder.
### Prompt Tell me the measured kon of Antibody 24 (antibody, V domains shown, captured on AHC sensors) VH: EVQLVQSGAEVKKPGATVKISCKVSGYSITDYLLHWVQQAPGKGLEWMGWIDPEDAKTKYGQKFQSRVTITADTSTDTAYMELSSLRSEDTAVYYCAANSGTGTMDAWGQGTLVTVSS VL: DIVMTQSPATLSVSPGERATLSCKASQNVGSNVDWYQQKPGQSPRVLIYKASIRYTGIPARFSGSGSGTEFTLTISILQSEDFAVYFCMQSKSYPITFGQGTKLEIK , please.
### Response 718000
